# System: tissue strips obtained from Landrace pig bladders
# method-notes: Functional potassium channel opening activity in isolated bladder strips (field-stimulated twitch)
# experimental-setup: Sus scrofa, amount of agent necessary to cause 50% of the agent's maximal response; read-out: ED50 (the source's name)
endpoint: pEC50
Keep in mind that pEC50 stands for -log10 of concentration in molar terms.

Worked set:
1) CC(Cl)(Cl)C(NC(=O)c1cccc(Cl)c1)NC(=NC#N)Nc1ccccc1F (centres unmarked) [Example 172] :: 6.31
2) Cc1ccc(C(=O)NC(NC(=O)Nc2cccnc2)C(Cl)(Cl)Cl)cc1 (centres unmarked) [Example 38] :: 5.15
3) Cc1ccc(C(=O)NC(NC(=S)Nc2cccc([N+](=O)[O-])c2)c2ccccc2)cc1 (centres unmarked) [Example 33] :: 4.92
4) CC(Cl)(Cl)C(NC(=O)c1cccc(F)c1)NC(=NC#N)Nc1ccc(Cl)nc1 (centres unmarked) [Example 156] :: 5.40
5) CC(Cl)(Cl)C(NC(=O)c1ccc(Cl)cc1)NC(=NC#N)Nc1ccc(C(F)(F)F)nc1 (centres unmarked) [Example 158] :: 5.32

pEC50 reading for Cc1ccc(C(=O)NC(NC(=S)Nc2cccc(F)c2F)C(F)(F)F)cc1 (centres unmarked) [Example 18] : 5.10

pEC50 reading for CC(Cl)(Cl)C(NC(=O)c1cccc(Cl)c1)NC(=NC#N)Nc1cccc(F)c1 (centres unmarked) [Example 169] : 5.30

pEC50 reading for Cc1ccc(C(=O)NC(NC(=S)Nc2ccc(F)cc2F)C(F)(F)F)cc1 (centres unmarked) [Example 15] : 4.55
